Test: RP-HPLC retention on XTerra RP18, methanol/buffer; extrapolated retention factor log kw and slope S
Format: physicochemical
Settings: pH 7.4; slope of log k vs methanol volume fraction
Structures can show the parent of a compound that is named as a salt.
Entries annotated with measured S (slope)
endpoint.name: S (slope)

>  <compound>
Brc1c(NC2=NCCN2)ccc2nccnc12 [Brimonidine, brimonidine hydrochloride]

>  <recorded.measurement>
-3.20

$$$$
>  <compound>
C[C@@H]1CCC[C@H](C)N1NC(=O)c1ccc(Cl)c(S(N)(=O)=O)c1 [Clopamide, clopamide]

>  <recorded.measurement>
-3.59

$$$$
>  <compound>
Nc1nc(N)c2nc(-c3ccccc3)c(N)nc2n1

>  <recorded.measurement>
-3.76

$$$$
>  <compound>
COc1cc2nc(N3CCN(C(=O)C4COc5ccccc5O4)CC3)nc(N)c2cc1OC (stereo not shown)

>  <recorded.measurement>
-5.05

$$$$
